Origin of values: ChEMBL document CHEMBL1129026

Molecular target: Corticotropin-releasing factor receptor 1 (Homo sapiens)
Sequence (P34998 whole entry): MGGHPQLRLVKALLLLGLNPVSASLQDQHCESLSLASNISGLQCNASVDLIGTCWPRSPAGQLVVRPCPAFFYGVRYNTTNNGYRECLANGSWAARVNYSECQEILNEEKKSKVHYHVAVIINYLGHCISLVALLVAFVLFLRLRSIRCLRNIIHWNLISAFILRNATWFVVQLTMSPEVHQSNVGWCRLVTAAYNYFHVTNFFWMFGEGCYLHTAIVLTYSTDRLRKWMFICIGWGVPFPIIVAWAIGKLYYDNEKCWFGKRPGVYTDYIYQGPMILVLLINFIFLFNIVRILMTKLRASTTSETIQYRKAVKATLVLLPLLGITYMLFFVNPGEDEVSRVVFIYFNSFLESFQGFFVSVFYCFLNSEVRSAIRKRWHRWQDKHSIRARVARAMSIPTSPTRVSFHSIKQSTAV
reportedProperty: Ki (nM)
Write the answer as a number in nM, unit excluded.

Input: Return reported Ki; argument: CCCN(CCC)c1nc(C)nc(Nc2c(C)cc(C)cc2C)n1
Output: 130

Input: Return reported Ki; argument: C=CCN(CC=C)c1nc(C)nc(Nc2c(C)cc(C)cc2C)n1
Output: 115

Input: Return reported Ki; argument: CCCCN(CCCC)c1nc(C)nc(Nc2c(C)cc(C)cc2C)n1
Output: 490

Input: Return reported Ki; argument: CCCN(Cc1ccccc1)c1nc(C)nc(Nc2c(C)cc(C)cc2C)n1
Output: 490
